Target: PARP-1 F1+F2 (24-kDa DBD) (Homo sapiens, UniProt P09874 1-214)
Sequence (P09874 1-214): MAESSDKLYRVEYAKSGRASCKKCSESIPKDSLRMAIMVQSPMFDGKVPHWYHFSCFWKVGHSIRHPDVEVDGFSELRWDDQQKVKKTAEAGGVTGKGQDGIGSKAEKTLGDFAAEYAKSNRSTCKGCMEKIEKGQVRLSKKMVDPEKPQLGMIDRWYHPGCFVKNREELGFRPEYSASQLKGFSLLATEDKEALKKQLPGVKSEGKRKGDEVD
Assay: fluorescence anisotropy; 25; 50 mM Tris-HCl pH 7.0, 150 uM ZnSO4, 4 mM DTT, 25 C; NaCl 0-200 mM (T2, as in cof; 10 nM DNA) or 25 mM (T3 mutants; 25 nM DNA)
Settings: protein: recombinant; label: fluorescein-dT at T8 and T30; single-chain dumbbell with central nick, two tetraloops
recorded metric: Kd (nM)

{"columns": ["binder", "recorded metric", "obs value"],
 "data": [
  ["CGGTCGATCGTAAGATCGACCGCGGTCGATCGTAAGATCGACCG (structured_DNA, 5'-phosphate) [44-nt nicked symmetric dumbbell, 5'-phosphate, 2x fluorescein-dT]", "Kd", 54.2]
]}
